- TEST_PROTOCOL: Dissociation constant for binding to concanavalin A (ConA) was determined by fluorescence anisotropy assay
RESULT_TYPE: Kd (uM l-1)
Write the answer as a number in uM l-1, unit excluded.

stdin: Bench note: what Kd did CN(C)c1cccc2c(S(=O)(=O)N(CCO[C@H]3O[C@@H](CO)[C@@H](O)[C@H](O)[C@H]3O)CC(=O)N(CCO[C@H]3O[C@@H](CO)[C@@H](O)[C@H](O)[C@H]3O)CC(=O)N(CCO[C@H]3O[C@@H](CO)[C@@H](O)[C@H](O)[C@H]3O)CC(=O)N(CCO[C@H]3O[C@@H](CO)[C@@H](O)[C@H](O)[C@H]3O)CC(=O)N(CCO[C@H]3O[C@@H](CO)[C@@H](O)[C@H](O)[C@H]3O)CC(N)=O)cccc12 show?
stdout: 14

stdin: // lookup Kd for CN(C)c1cccc2c(S(=O)(=O)N(CCO[C@H]3O[C@@H](CO)[C@@H](O)[C@H](O)[C@H]3O)CC(N)=O)cccc12
stdout: 31

stdin: Recorded Kd of CN(C)c1cccc2c(S(=O)(=O)N(CCO[C@H]3O[C@@H](CO)[C@@H](O[C@H]4O[C@@H](CO)[C@@H](O[C@H]5O[C@@H](CO)[C@@H](O)[C@H](O)[C@H]5O)[C@H](O)[C@H]4O)[C@H](O)[C@H]3O)CC(N)=O)cccc12 , please.
stdout: 2

stdin: Please give the measured Kd for this compound: CN(C)c1cccc2c(S(=O)(=O)N(CCO[C@H]3O[C@@H](CO)[C@@H](O)[C@H](O)[C@H]3O)CC(=O)N(CCO[C@H]3O[C@@H](CO)[C@@H](O)[C@H](O)[C@H]3O)CC(=O)N(CCO[C@H]3O[C@@H](CO)[C@@H](O)[C@H](O)[C@H]3O)CC(=O)N(CCO[C@H]3O[C@@H](CO)[C@@H](O)[C@H](O)[C@H]3O)CC(=O)N(CCO[C@H]3O[C@@H](CO)[C@@H](O)[C@H](O)[C@H]3O)CC(=O)N(CCO[C@H]3O[C@@H](CO)[C@@H](O)[C@H](O)[C@H]3O)CC(N)=O)cccc12
stdout: 12

stdin: Looking for the measured Kd of CO[C@H]1[C@@H](OCCN(CC(N)=O)S(=O)(=O)c2cccc3c(N(C)C)cccc23)O[C@@H](CO)[C@@H](O)[C@@H]1O , can you help?
stdout: 122

stdin: Kd for CN(C)c1cccc2c(S(=O)(=O)N(CCO[C@H]3O[C@@H](CO)[C@@H](O)[C@H](O)[C@H]3O)CC(=O)N(CCO[C@H]3O[C@@H](CO)[C@@H](O)[C@H](O)[C@H]3O)CC(N)=O)cccc12 ?
stdout: 18

----------
- TEST_PROTOCOL: Dissociation constant for binding to concanavalin A (ConA) was determined by fluorescence anisotropy assay
Kindly supply the reported Kd values for the records listed here.
Your answer should be a plain number; it is taken to be in uM l-1.

stdin: # input molecule: CN(C)c1cccc2c(S(=O)(=O)N(CCO[C@H]3O[C@@H](CO)[C@@H](O)[C@H](O)[C@H]3O)CC(=O)N(CCO[C@H]3O[C@@H](CO)[C@@H](O)[C@H](O)[C@H]3O)CC(=O)N(CCO[C@H]3O[C@@H](CO)[C@@H](O)[C@H](O)[C@H]3O)CC(N)=O)cccc12 ; wanted: its Kd
stdout: 9

stdin: // query Kd value for entry CN(C)c1cccc2c(S(=O)(=O)N(CCO[C@H]3O[C@@H](CO)[C@@H](O)[C@H](O)[C@H]3O)CC(=O)N(CCO[C@H]3O[C@@H](CO)[C@@H](O)[C@H](O)[C@H]3O)CC(=O)N(CCO[C@H]3O[C@@H](CO)[C@@H](O)[C@H](O)[C@H]3O)CC(=O)N(CCO[C@H]3O[C@@H](CO)[C@@H](O)[C@H](O)[C@H]3O)CC(N)=O)cccc12
stdout: 12
